# System: 786-0 renal
# TEST: NCI-60 one-dose screen, 48 h (100 = growth as untreated, 0 = no growth, -100 = all killed)
# CONDITION_CONTEXT: 10 µM unless noted
Compounds without any hit were thinned out: in the full panel of roughly 83,000, 20% have a hit.
Cut-off 40% on growth, inclusive. At or above means criterion met; below means criterion not met.

Look over these answered cases.
COMPOUND: COc1cc(-c2csc(NC(=O)c3cc(C(F)(F)F)cc(C(F)(F)F)c3)n2)cc(OC)c1OC
LABEL_VALUE: criterion met
//
COMPOUND: CCCCCCCCCCCCOB(OCCCCCCCCCCCC)OCCCCCCCCCCCC
LABEL_VALUE: criterion met
//
COMPOUND: O=C(N/N=C/c1c(Cl)cccc1Cl)c1ccccc1Nc1ccnc(C(F)(F)F)c1
LABEL_VALUE: criterion met
//
COMPOUND: COc1ccc(NC(=O)CSc2nc3ccccc3c(=O)n2Cc2cc(OC)c(OC)c(OC)c2)cc1
LABEL_VALUE: criterion met
//
COMPOUND: COc1cccc(NC(=O)c2sc3nc4c(cc3c2N)CCCC4)c1
LABEL_VALUE: criterion not met

State whether the measured growth reaches 40%, counting equality as reaching it, for COc1ccc(/C(=N\O)c2cc(OC)c(OC)c(OC)c2)c(OC)c1N criterion not met

Reported growth at or above 40%? Cc1cc2c(c(=O)o1)C(c1ccc(OC(=O)N3CCOCC3)cc1)C(C#N)=C(N)O2 (stereo unspecified) criterion met

Tell me whether growth is at least 40% here: COc1cc(Cn2c(SCCC(=O)Nc3ccc(F)cc3)nc3ccccc3c2=O)cc(OC)c1OC criterion met

Does growth meet or surpass 40% for CCCCCCCCCCC/C=C\C[C@H](O)C/C=C1/C(=O)C=C[C@@H]1C/C=C\CCCC(=O)OC ? criterion not met

Please check the record CCOC(=O)C(Cc1ccccc1)n1c(O)c(C=Nc2ccc(C(=O)OCCN(CC)CC)cc2)sc1=O (stereo unspecified) and state if its growth is at or above 40%. criterion met

Is the recorded value of growth equal to or greater than 40% for this compound? COc1cc(Cn2c(SCC(=O)Nc3ccc(Cl)cc3)nc3ccccc3c2=O)cc(OC)c1OC criterion not met

Reported growth reaches at least 40% for Cc1nc2scc(-c3ccccc3)n2c(=O)c1CCO ? criterion met

Just for reference, PubChem BioAssay (NCI) is where these values come from.
